- SYSTEM_UNDER_TEST: Pro-neuregulin-1, membrane-bound isoform (Homo sapiens)
- ASSAY_DETAILS: NRG1 binders on small-molecule microarrays, primary screen, psychiatric disease protein project, biochemical, small-molecule microarray, fluorescence 635/667 (AID 1075);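 also: score combines 667 nm spot fluorescence with signal to noise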
- CONDITION_NOTES: NRG1 binding, 635 nm fluorescence, higher = more signal
VALUE_TYPE: composite z-score
Response field accepts a number only; no unit should be typed.

Item CN1C(=O)C2C=CC(C(O)c3ccc(I)cc3)N(N3CCCCC3)C2C1=O (configuration not stated) was tested on Pro-neuregulin-1, membrane-bound isoform (Homo sapiens); the reported composite z-score is 1.73

Entry CCCC[C@H]1OB(O)C[C@H]2C1=C(COc1ccccc1)C[C@H]1C(=O)N(C)C(=O)[C@H]12 under Pro-neuregulin-1, membrane-bound isoform (Homo sapiens) had composite z-score of 0.0746

Reading of composite z-score for C=CC[C@]1(C(=O)N2CCCCC2)N=C(c2ccc(OCCCO)cc2)O[C@H]1c1ccccc1 with Pro-neuregulin-1, membrane-bound isoform (Homo sapiens): 1.77

Bench note, Pro-neuregulin-1, membrane-bound isoform (Homo sapiens): entry CCCC=C(CCC)[C@@H](NC(=O)Oc1ccc(F)cc1)c1ccc(C(=O)OC)cc1 , its composite z-score = -0.454

Entry C=CCOC(=O)[C@@H]1[C@H]2C(=O)O[C@H](c3ccccc3)[C@H](c3ccccc3)N2[C@H](c2ccc(OCCOC(=O)[C@@H]3C[C@@H]4C(=O)N[C@@H](CCCC[N+](C)(C)C)C(=O)N4[C@@H]3c3cccc(OCCO)c3)cc2)[C@@]12C(=O)Nc1ccc(I)cc12 : composite z-score on Pro-neuregulin-1, membrane-bound isoform (Homo sapiens) = 0.498

composite z-score value, target or system Pro-neuregulin-1, membrane-bound isoform (Homo sapiens), for O=C1c2ccccc2[C@@]2(Cc3ccccc3N(CC(F)(F)F)C2=O)[C@H](c2ccc(CO)cc2)N1Cc1ccccc1Cl : -0.0415

Known value: Pro-neuregulin-1, membrane-bound isoform (Homo sapiens) composite z-score of the molecule COC(=O)[C@@]1(Cc2ccc(OC)cc2)[C@H]2c3cc(C(=O)N(C)C)n(Cc4cccc5ccccc45)c3C[C@H]2CN1C(=O)c1ccccc1 equals 1.79

// assay Pro-neuregulin-1, membrane-bound isoform (Homo sapiens), entry COCCn1c(C(=O)N2CCCC2)cc2c1C[C@H]1CN(C(=O)c3ccccc3)[C@@](Cc3ccc(F)cc3)(C(=O)OC)[C@@H]21 , composite z-score value = 1.81

O=C1c2ccccc2[C@@]2(Cc3ccccc3N(CCN3CCOCC3)C2=O)[C@H](c2ccc(CO)cc2)N1Cc1ccccc1 tested on Pro-neuregulin-1, membrane-bound isoform (Homo sapiens) gave composite z-score: -0.561

Recorded composite z-score for COCCOC(=O)N1C(=O)[C@@]2(c3cc(C#CCCO)ccc31)[C@H](C(=O)N1CCN(c3ncccn3)CC1)[C@H]1C(=O)O[C@H](c3ccccc3)[C@H](c3ccccc3)N1[C@@H]2c1ccccc1OCCO on Pro-neuregulin-1, membrane-bound isoform (Homo sapiens) was 1.37

Known value: Pro-neuregulin-1, membrane-bound isoform (Homo sapiens) composite z-score of the molecule COCCOC(=O)N1C(=O)[C@@]2(c3cc(C#CCNC(N)=O)ccc31)[C@H](C(=O)NC[C@H](O)c1ccccc1)[C@H]1C(=O)O[C@H](c3ccccc3)[C@H](c3ccccc3)N1[C@@H]2c1ccccc1OCCO equals 0.891

Noted composite z-score for COc1ccc([Si](C)(C)[C@H]2[C@H](CCO)O[C@@]3(C(=O)N(Cc4ccc(N5C(=O)COc6ccccc65)cc4)c4ccccc43)[C@@H]2C)cc1 , tested on Pro-neuregulin-1, membrane-bound isoform (Homo sapiens): 0.774

The measured composite z-score that COCCOC(=O)N1C(=O)[C@@]2(c3cc(C#CC4=CCCCC4)ccc31)[C@H](C(=O)N1CCc3cc(OC)c(OC)cc3C1)[C@H]1C(=O)O[C@H](c3ccccc3)[C@H](c3ccccc3)N1[C@@H]2c1ccc(OCCO)cc1 showed for Pro-neuregulin-1, membrane-bound isoform (Homo sapiens) is 0.101

Item C=C(/C(=C/C[C@@H](OC(C)=O)c1ccc(OCCO)cc1)c1cnc2ccccc2c1)C(C)C was tested on Pro-neuregulin-1, membrane-bound isoform (Homo sapiens); the reported composite z-score is 0.213

# value of composite z-score, Pro-neuregulin-1, membrane-bound isoform (Homo sapiens), item COC(=O)[C@@]1(Cc2ccccc2)[C@H]2c3cc(C(=O)N(C)C)n(CCSCCO)c3C[C@H]2CN1C(=O)c1ccccc1 = 1.28

Tested system Pro-neuregulin-1, membrane-bound isoform (Homo sapiens); composite z-score recorded for COC(=O)[C@@]1(Cc2ccccc2)[C@H]2c3cc(C(=O)N4CCCC4)n(Cc4nc5ccccc5[nH]4)c3C[C@H]2CN1C(=O)c1ccccc1 was 2.07

# value of composite z-score, Pro-neuregulin-1, membrane-bound isoform (Homo sapiens), item C=CCC(OC(C)=O)[C@@H]1[C@@H](N(Cc2cccc3ccccc23)C(=O)c2ccc(-c3ccccc3)cc2)c2cc(OCCCO)ccc2N1C(=O)Cc1ccc(OC)cc1 (some centres not stated) = 0.0521

Summary line: C=CC[C@]12N=C(c3ccc(OCCCO)cc3)O[C@H]1c1ccccc1N(Cc1ccccc1)C2=O , Pro-neuregulin-1, membrane-bound isoform (Homo sapiens), reported composite z-score = 0.138

For COc1ccc(C(=O)O[C@H]2CC[C@]3(C)C4=C(CCC3C2(C)C)[C@]2(C)CC[C@H]([C@H](C)CCCC(C)C)[C@@]2(C)CC4)cc1 (some centres not stated) on Pro-neuregulin-1, membrane-bound isoform (Homo sapiens), measured composite z-score was 0.133

The reported Pro-neuregulin-1, membrane-bound isoform (Homo sapiens) composite z-score of CCCN1C(=O)[C@]2(CCS(=O)(=O)c3ccccc3)N=C(c3ccc(OCCCO)cc3)O[C@@H]2c2ccccc21 is 1.28

Reported composite z-score (Pro-neuregulin-1, membrane-bound isoform (Homo sapiens)) for entry CCCCN1CC=CC23O[C@@H]4/C=C\CCC(C)OC(=O)C4[C@H]2C(=O)N(CCCCCO)[C@@H]3C1=O (some centres not stated) is 0.768

So the reported composite z-score for CN1C(=O)C2C=CC(C(O)C3=C[C@H]4C[C@@H](C3)C4(C)C)N(Nc3ccccc3)C2C1=O (some centres not stated) , on Pro-neuregulin-1, membrane-bound isoform (Homo sapiens), turned out to be 0.986

Field composite z-score (system: Pro-neuregulin-1, membrane-bound isoform (Homo sapiens)) for entry COc1ccc(C#Cc2ccc3c(c2)[C@]2(C(=O)N3)[C@H](c3ccccc3OCCO)N3[C@H](c4ccccc4)[C@H](c4ccccc4)OC(=O)[C@H]3[C@@H]2C(=O)O)cc1 = 1.74

Let me check: CCCCCCC#C[Si](O[C@H](c1ccccc1)c1cn([C@H](CO)Cc2ccccc2)nn1)(C(C)C)C(C)C , system Pro-neuregulin-1, membrane-bound isoform (Homo sapiens), measured composite z-score is -0.138

Result for O=C1C2C=CC(C(O)C3CCCCC3)N(Nc3ccc([N+](=O)[O-])cc3)C2C(=O)N1c1ccccc1 (configuration not stated) , tested on Pro-neuregulin-1, membrane-bound isoform (Homo sapiens), composite z-score: 1.33

# lookup: CCCCc1cn(C[C@H](Cc2ccccc2)NC(=O)N[C@H](CO)CCc2oc(C(C)=O)c(C(=O)OC)c2C(=O)OC)nn1 on Pro-neuregulin-1, membrane-bound isoform (Homo sapiens), composite z-score = 0.979

The observed composite z-score for COCCCNC(=O)[C@@]1(Cc2ccccc2)N=C(c2ccc(OCCCO)cc2)O[C@H]1c1ccccc1 when tested with Pro-neuregulin-1, membrane-bound isoform (Homo sapiens) stands at 1.38
